test: proliferation blockers of H69AR lung cancer cells, primary screen, cell-based, human, 86K library (AID 598); conditions: H69AR lung tumor viability, ATP luminescence, 72 h; at 10 µM; hits give low values;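 further: multidrug resistant small cell line overexpressing MRP-1 efflux transporter; 100% = mean luminescence of untreated control wells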
Hit rate of the full screen: of about 85,000 compounds, about 5,100 (6%) were called active. This excerpt belongs to a sample that is enriched for actives.
measurement label: viability (%)
Report as a plain number; the unit % is understood.

compound: N=c1c2c3c(sc2nc2n1CCCCC2)CCCC3
units of measure: %
viability: 84

Incoming: Entry under review: Oc1c(C(c2ccccn2)N2CCOCC2)ccc2cccnc12 (stereo not drawn) . Reported viability?
Outgoing: 79.3

Incoming: Quick one: viability for `Cc1ccc(S(=O)(=O)c2c(COC(=O)c3cccc(Cl)c3)c(-c3ccccc3)nn2C)cc1` ?
Outgoing: 87.9

Incoming: Field request: viability | item: `CCN(CC)CCn1c2ccc(Cl)cc2c2nc(C)sc21`
Outgoing: 20.6
